Provide the reported Biodistribution: Lungs of each item.
Assay: Biodistribution of 18F-labelled tracers in rats
Type: in vivo
Details: rats; 4 hours; corrected for decay of 18F
One number for each entry, in % ID/g.

Could you please provide reported Biodistribution: Lungs for CCN(CC)C(=O)Cc1c(-c2ccc(OCCCF)cc2)nn2c(C)cc(C)nc12 ? Thanks! 3.25

Could you please provide reported Biodistribution: Lungs for CCN(CC)C(=O)Cc1c(-c2ccc(OCCCF)cc2)nc2ccc(Cl)cn12 ? Thanks! 3.02

Could you please provide reported Biodistribution: Lungs for CCN(CC)C(=O)Cc1c(-c2ccc(OCCF)cc2)nc2ccc(Cl)cn12 ? Thanks! 8.09

Alright, here's another compound for you.
Could you please provide reported Biodistribution: Lungs for CCN(CC)C(=O)Cc1c(-c2ccc(C(C)(C)C)cc2)nc2ccc([18F])nn12 ? Thanks! 2.42

* * *

Experiment: Biodistribution of 18F-labelled tracers in rats
Assay type: in vivo
Details: rats; 30 min; corrected for decay of 18F
value.kind: Biodistribution: Skin (% ID/g)
Answers are plain numbers, in % ID/g.

Below, 3 compounds whose answers are already recorded.
Could you please provide reported Biodistribution: Skin for CCN(CC)C(=O)Cc1c(-c2ccc(OCCCF)cc2)nn2c(C)cc(C)nc12 ? Thanks! 0.55

Could you please provide reported Biodistribution: Skin for CCN(CC)C(=O)Cc1c(-c2ccc(C(C)(C)C)cc2)nc2ccc([18F])nn12 ? Thanks! 0.65

Could you please provide reported Biodistribution: Skin for CCN(CC)C(=O)Cc1c(-c2ccc(OCCCF)cc2)nc2ccc(Cl)cn12 ? Thanks! 0.37

Alright, here's another compound for you.
Could you please provide reported Biodistribution: Skin for CCN(CC)C(=O)Cc1c(-c2ccc(OCCF)cc2)nc2ccc(Cl)cn12 ? Thanks! 0.31

* * *

Assay: Biodistribution of 18F-labelled tracers in rats
Format: in vivo
Settings: SD rats; 4 hours; decay correction not stated
Description: [^18F]Fluoride, in the form of H^18F, was produced by the ^18O(p,n)^18F nuclear reaction by bombardment of ^18O-enriched water target. […] The biodistribution of PBR132* was undertaken in SD rats and analysis up to 4 h p.i. in the brain and peripheral tissues was performed. The specificity and selectivity of the tracer were assessed by pre-treatment with PBR and Central benzodiazepine receptor (CBR) specific ligands (1 mg/kg) 5 min prior to injection of PBR132*. […]
value.kind: Biodistribution: Kidney (% ID/g)
Answers are plain numbers, in % ID/g.

Could you please provide reported Biodistribution: Kidney for CCN(CC)C(=O)Cc1c(-c2ccc(OCCCF)cc2)nn2c(C)cc(C)nc12 ? Thanks! 3.2

Could you please provide reported Biodistribution: Kidney for CN(C(=O)Cc1c(-c2ccc(OCCCF)cc2)nc2c(Cl)cc(Cl)cn12)c1ccccc1 ? Thanks! 3.6

Could you please provide reported Biodistribution: Kidney for CCN(CC)C(=O)Cc1c(-c2ccc(OCCF)cc2)nc2ccc(Cl)cn12 ? Thanks! 1.3

Alright, here's another compound for you.
Could you please provide reported Biodistribution: Kidney for CCN(CC)C(=O)Cc1c(-c2ccc(OCCCF)cc2)nc2ccc(Cl)cn12 ? Thanks! 2.3

* * *

Test: LogP HPLC
Given measured chromatographic logP, output class 1 if it is greater than or equal to 3 and class 0 if not.

Check out these entries, answers already filled in.
Could you tell me if the measured chromatographic logP of CN(C)C(=O)Cc1c(-c2ccc(OCCF)cc2)nc2ccc(Cl)cn12 [PBR105] reaches 3 or more? class 0

Could you tell me if the measured chromatographic logP of CN(C(=O)Cc1c(-c2ccc(OCCF)cc2)nc2ccc(Cl)cn12)c1ccccc1 [PBR 149] reaches 3 or more? class 1

Could you tell me if the measured chromatographic logP of CCN(CC)C(=O)Cc1c(-c2ccc(OCCCF)cc2)nc2c(Cl)cc(Cl)cn12 [PBR 130] reaches 3 or more? class 1

Could you tell me if the measured chromatographic logP of CCCN(CCC)C(=O)Cc1c(-c2ccc(OCCF)cc2)nc2ccc(Cl)cn12 [PBR103] reaches 3 or more? class 1

Could you tell me if the measured chromatographic logP of CN(C(=O)Cc1c(-c2ccc(OCCF)cc2)nc2c(Cl)cc(Cl)cn12)c1ccccc1 [PBR 143] reaches 3 or more? class 1

Could you tell me if the measured chromatographic logP of CC(C)(C)c1ccc(-c2nc3ccc(F)nn3c2CNC(=O)c2ccccc2)cc1 [PBR 139] reaches 3 or more? class 1

Could you tell me if the measured chromatographic logP of CCN(CC)C(=O)Cc1c(-c2ccc(OCCCF)cc2)nc2ccc(Cl)cn12 [PBR111] reaches 3 or more? class 1

Could you tell me if the measured chromatographic logP of CCN(CC)C(=O)Cc1c(-c2ccc(OCCF)cc2)nn2c(C)cc(C)nc12 [PBR099] reaches 3 or more? class 0

***
Could you tell me if the measured chromatographic logP of CC(C)NC(=O)Cc1c(-c2ccc(OCCF)cc2)nc2ccc(Cl)cn12 [PBR110] reaches 3 or more? class 0
